Data credit: paper PMC9133015

# ASSAY OVERVIEW: Pharmacokinetic profiles
# Assay type: in vivo
# TEST PARAMETERS: SD, rat, serum, iv, 1 mg/kg, SD rats, IV 1 mg/kg, 8 h; read-out: Con. Mean
PROPERTY: concentration at 8 h (ng/mL)
The reply should be a number in ng/mL, with the unit left off.

Determine its reported concentration at 8 h: CCN1CCN(C(=O)c2ccc(Nc3ncc(F)c(-c4ccc5nc(N(C)C)sc5c4)n3)nc2)CC1 [YK-2-69]
41.5

====

# ASSAY OVERVIEW: Pharmacokinetic profiles
# Format: in vivo
# TEST PARAMETERS: SD, rat, serum, po, 10 mg/kg, SD rats, PO 10 mg/kg, 6 h; read-out: Con. (individual rats NO.1-3)
PROPERTY: concentration at 6 h (µg/mL)
The reply should be a number in µg/mL, with the unit left off.

Determine its reported concentration at 6 h: CCN1CCN(C(=O)c2ccc(Nc3ncc(F)c(-c4ccc5nc(N(C)C)sc5c4)n3)nc2)CC1
0.685

====

# ASSAY SYSTEM: DYRK2 (Homo sapiens, UniProt Q92630)
# Construct: purchased Reaction Biology Corporation (assay service)
# Sequence (Q92630 whole entry): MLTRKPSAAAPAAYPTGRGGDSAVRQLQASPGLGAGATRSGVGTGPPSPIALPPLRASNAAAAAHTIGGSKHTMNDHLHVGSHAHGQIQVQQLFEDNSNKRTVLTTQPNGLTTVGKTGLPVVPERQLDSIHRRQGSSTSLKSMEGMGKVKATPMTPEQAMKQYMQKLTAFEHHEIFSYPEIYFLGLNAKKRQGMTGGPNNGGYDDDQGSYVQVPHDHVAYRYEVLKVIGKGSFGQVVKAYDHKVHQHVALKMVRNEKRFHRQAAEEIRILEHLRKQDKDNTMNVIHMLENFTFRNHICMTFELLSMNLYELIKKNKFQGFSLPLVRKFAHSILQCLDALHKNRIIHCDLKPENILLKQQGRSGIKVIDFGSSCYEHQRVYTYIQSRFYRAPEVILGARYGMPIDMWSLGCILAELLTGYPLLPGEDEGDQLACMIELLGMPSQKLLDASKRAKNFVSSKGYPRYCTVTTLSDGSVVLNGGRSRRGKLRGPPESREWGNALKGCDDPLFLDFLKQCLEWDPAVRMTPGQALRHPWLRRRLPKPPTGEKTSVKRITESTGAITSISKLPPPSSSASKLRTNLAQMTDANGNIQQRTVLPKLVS
# ASSAY OVERVIEW: DYRKs kinase activity assay (33P-ATP, DYRKtide substrate): DYRK2
# Assay type: biochemical
# TEST PARAMETERS: DYRK2 kinase; Conc. 0.0411523 µM; duplicate values
PROPERTY: % Inhibition (%)
The reply should be a number in %, with the unit left off.

Recorded % Inhibition, per entry:
| COMPOUND | % Inhibition (%) |
| --- | --- |
| Cc1nc2ccc(-c3nc(Nc4ccc(C(=O)N5CCNCC5)cn4)ncc3F)cc2s1.Cl [Compound 24] | 60.50 |
| Cl.Fc1cnc(Nc2ccc(N3CCNCC3)cn2)nc1-c1ccc2ncsc2c1 [Compound 21] | 38.81 |
| CCN1CCN(C(=O)c2ccc(Nc3ncc(F)c(-c4ccc5nc(C)sc5c4)n3)nc2)CC1 [Compound 23] | 56.16 |
| CCN1CCN(Cc2ccc(Nc3ncc(F)c(-c4ccc5ncsc5c4)n3)nc2)CC1 [Compound 16] | 26.26 |
| CC(C)N1CCN(Cc2ccc(Nc3ncc(F)c(-c4ccc5ncsc5c4)n3)nc2)CC1 [Compound 12] | 22.26 |

Report % Inhibition from DYRK2 (Homo sapiens, UniProt Q92630) testing of CC(C)(C)OC(=O)N1CCN(Cc2ccc(Nc3ncc(F)c(-c4ccc5ncsc5c4)n3)nc2)CC1 [Compound 17]
9.25

Report % Inhibition from DYRK2 (Homo sapiens, UniProt Q92630) testing of Cl.Fc1cnc(Nc2ccc(CN3CCNCC3)cn2)nc1-c1ccc2ncsc2c1 [Compound 18]
21.24

====

# ASSAY OVERVIEW: Pharmacokinetic profiles
# Type: in vivo
# TEST PARAMETERS: SD, rat, serum, po, 10 mg/kg, SD rats, PO 10 mg/kg, 0.25 h; read-out: Con. Mean
PROPERTY: concentration at 0.25 h (ng/mL)
The reply should be a number in ng/mL, with the unit left off.

Determine its reported concentration at 0.25 h: CCN1CCN(C(=O)c2ccc(Nc3ncc(F)c(-c4ccc5nc(N(C)C)sc5c4)n3)nc2)CC1 [YK-2-69]
93.1

====

# ASSAY OVERVIEW: Pharmacokinetic profiles
# Type: in vivo
# TEST PARAMETERS: rat, serum; SD rats, PO 10 mg/kg
PROPERTY: Tmax (h)
The reply should be a number in h, with the unit left off.

Determine its reported Tmax: CCN1CCN(C(=O)c2ccc(Nc3ncc(F)c(-c4ccc5nc(N(C)C)sc5c4)n3)nc2)CC1
4

====

# ASSAY OVERVIEW: Pharmacokinetic profiles
# Format: in vivo
# TEST PARAMETERS: Sprague-Dawley, rat, serum, iv, 1 mg/kg, SD rats, IV 1 mg/kg, 0.033 h; read-out: Con. Mean
PROPERTY: concentration at 0.033 h (ng/mL)
The reply should be a number in ng/mL, with the unit left off.

Determine its reported concentration at 0.033 h: CCN1CCN(C(=O)c2ccc(Nc3ncc(F)c(-c4ccc5nc(N(C)C)sc5c4)n3)nc2)CC1
974

====

# ASSAY OVERVIEW: Pharmacokinetic profiles
# Assay type: in vivo
# TEST PARAMETERS: Sprague-Dawley, rat, serum, iv, 1 mg/kg, SD rats, IV 1 mg/kg, 0.5 h; read-out: Con. (individual rats NO.1-3)
PROPERTY: concentration at 0.5 h (µg/mL)
The reply should be a number in µg/mL, with the unit left off.

Determine its reported concentration at 0.5 h: CCN1CCN(C(=O)c2ccc(Nc3ncc(F)c(-c4ccc5nc(N(C)C)sc5c4)n3)nc2)CC1
0.399

====

# ASSAY SYSTEM: DYRK2 (Homo sapiens, UniProt Q92630)
# Construct: purchased Reaction Biology Corporation (assay service)
# ASSAY OVERVIEW: DYRKs kinase activity assay (33P-ATP, DYRKtide substrate): DYRK2
# Assay type: biochemical
# TEST PARAMETERS: DYRK2 kinase; Conc. 0.0411523 µM; duplicate values; read-out: % Inhibition
PROPERTY: inhibition at 0.0411523 µM (%)
The reply should be a number in %, with the unit left off.

| CHEM SMILES | U | inhibition at 0.0411523 µM |
| --- | --- | --- |
| CCN1CCN(C(=O)c2cnc(Nc3ncc(F)c(-c4ccc5ncsc5c4)n3)nc2)CC1 | % | 13.2 |
| CCN1CCN(Cc2ccc(Nc3ncc(F)c(-c4ccc5ncsc5c4)n3)nc2)CC1 | % | 23.1 |
| CCN1CCN(C(=O)c2ccc(Nc3ncc(F)c(-c4ccc5nc(C)sc5c4)n3)nc2)CC1 | % | 55.9 |
| Cc1nc2ccc(-c3nc(Nc4ccc(C(=O)N5CCNCC5)cn4)ncc3F)cc2s1.Cl | % | 61 |
| Cl.Fc1cnc(Nc2ccc(CN3CCNCC3)cn2)nc1-c1ccc2ncsc2c1 | % | 19 |

Determine its reported inhibition at 0.0411523 µM: CC(C)(C)OC(=O)N1CCN(Cc2ccc(Nc3ncc(F)c(-c4ccc5ncsc5c4)n3)nc2)CC1
8.33

Determine its reported inhibition at 0.0411523 µM: CC(C)N1CCN(Cc2ccc(Nc3ncc(F)c(-c4ccc5ncsc5c4)n3)nc2)CC1
21.1

Determine its reported inhibition at 0.0411523 µM: Cl.Fc1cnc(Nc2ccc(N3CCNCC3)cn2)nc1-c1ccc2ncsc2c1
36.7

====

# ASSAY OVERVIEW: Pharmacokinetic profiles
# Assay type: in vivo
# TEST PARAMETERS: rat, in vivo; SD rats, IV 1 mg/kg, 12 h; read-out: Con. (individual rats NO.1-3)
PROPERTY: concentration at 12 h (ng/mL)
The reply should be a number in ng/mL, with the unit left off.

Determine its reported concentration at 12 h: CCN1CCN(C(=O)c2ccc(Nc3ncc(F)c(-c4ccc5nc(N(C)C)sc5c4)n3)nc2)CC1 [YK-2-69]
19.8

====

# ASSAY OVERVIEW: Pharmacokinetic profiles
# Assay type: in vivo
# TEST PARAMETERS: SD, rat, serum, po, 10 mg/kg, SD rats, PO 10 mg/kg, 0.083 h; read-out: Con. Mean
PROPERTY: concentration at 0.083 h (ng/mL)
The reply should be a number in ng/mL, with the unit left off.

Determine its reported concentration at 0.083 h: CCN1CCN(C(=O)c2ccc(Nc3ncc(F)c(-c4ccc5nc(N(C)C)sc5c4)n3)nc2)CC1
9.82

====

# ASSAY OVERVIEW: Pharmacokinetic profiles
# Format: in vivo
# TEST PARAMETERS: SD, rat, serum, po, 10 mg/kg, SD rats, PO 10 mg/kg, 4 h; read-out: Con. Mean
PROPERTY: concentration at 4 h (ng/mL)
The reply should be a number in ng/mL, with the unit left off.

Determine its reported concentration at 4 h: CCN1CCN(C(=O)c2ccc(Nc3ncc(F)c(-c4ccc5nc(N(C)C)sc5c4)n3)nc2)CC1 [YK-2-69]
663

====

# ASSAY OVERVIEW: Pharmacokinetic profiles
# Assay type: in vivo
# TEST PARAMETERS: SD, rat, serum, po, 10 mg/kg, SD rats, PO 10 mg/kg, 0.5 h; read-out: Con. Mean
PROPERTY: concentration at 0.5 h (ng/mL)
The reply should be a number in ng/mL, with the unit left off.

Determine its reported concentration at 0.5 h: CCN1CCN(C(=O)c2ccc(Nc3ncc(F)c(-c4ccc5nc(N(C)C)sc5c4)n3)nc2)CC1
220

====

# ASSAY OVERVIEW: Pharmacokinetic profiles
# Assay type: in vivo
# TEST PARAMETERS: rat, serum; SD rats, PO 10 mg/kg
PROPERTY: half-life (h)
The reply should be a number in h, with the unit left off.

Determine its reported half-life: CCN1CCN(C(=O)c2ccc(Nc3ncc(F)c(-c4ccc5nc(N(C)C)sc5c4)n3)nc2)CC1
5
